Give ED50 for every item shown.
system: Rattus norvegicus; assay: Compound was evaluated for diarrheagenic side effects in adult male rats by intragastric administration; type: functional; conditions: po
Answers are plain numbers, in mg/kg.

Below are 4 molecules. Give each one its ED50.
1. C/C=C(C)/C=C/[C@](C)(O)C/C=C/[C@H]1[C@H](O)CC(=O)[C@@H]1CC/C=C\CCC(=O)OC
2. CCCCC(C)(O)C/C=C/[C@H]1[C@H](O)CC(=O)[C@@H]1CC/C=C\CCC(=O)OC (stereo partly drawn)
3. C/C=C/C=C/[C@](C)(O)C/C=C/[C@H]1[C@H](O)CC(=O)[C@@H]1CC/C=C\CCC(=O)OC
4. C/C=C(C)\C=C\[C@](C)(O)C/C=C/[C@H]1[C@H](O)CC(=O)[C@@H]1CC/C=C\CCC(=O)OC

Response:
1. 0.185
2. 0.049
3. 0.25
4. 1.23

----------
test system: Rattus norvegicus; assay: Compound was evaluated for diarrheagenic side effects in adult male rats by intragastric administration; format: functional; conditions: po
Exercise: for every item that follows, state its recorded ED50.
Numbers only, in mg/kg.

Here is how some molecules turned out for ED50.
1) C=C/C(C)=C/[C@](C)(O)C/C=C/[C@H]1[C@H](O)CC(=O)[C@@H]1CC/C=C\CCC(=O)OC ... 1.03
2) C=C(C)/C=C/[C@](C)(O)C/C=C/[C@H]1[C@H](O)CC(=O)[C@@H]1CC/C=C\CCC(=O)OC ... 0.42
3) C=C/C=C/[C@](C)(O)C/C=C/[C@H]1[C@H](O)CC(=O)[C@@H]1CC/C=C\CCC(=O)OC ... 0.243

Next molecule, please.
Prompt: Dear colleague, I am looking for the recorded ED50 of the following molecule: C/C=C\C=C\[C@](C)(O)C/C=C/[C@H]1[C@H](O)CC(=O)[C@@H]1CC/C=C\CCC(=O)OC
Response: 0.306
